Task for the reader: assign each of the following sequences its reported self-aminoacylation.
Tested on: biotinyl-Val-oxazolone
Test: self-aminoacylation, catalytic enhancement (BVO) (fold over background); higher = more active; k-Seq, kA / k0A0; sequences stand for … in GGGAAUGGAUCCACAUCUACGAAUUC…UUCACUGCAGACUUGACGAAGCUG
Fewer inactive variants are shown than the library holds.
Answers are plain numbers.

Examples from the recorded data:
1) CUUACCCUGGUCAUCGAAUGA [Fam2.1 aminoacylation ribozyme variant] = 0.985
2) GCUCACUUCAAGCAAUCGGUC [Fam1B.1 aminoacylation ribozyme variant] = 1.67
3) UUGCACCUAGGUCAUCGGGUG [Fam2.2 aminoacylation ribozyme variant] = 3.66

Provide each entry's self-aminoacylation from the list below.
1. CAACACGUCAAGCAAUCGGUC [Fam1B.1 aminoacylation ribozyme variant]
2. AUUACCAUGGUCCUCGAGUGA [Fam2.1 aminoacylation ribozyme variant]
3. AAGUUUGCUAAUUGUUGCAAG [Fam3.1 aminoacylation ribozyme variant]
4. CCACACUUCAAUCAAUCUGUC [Fam1B.1 aminoacylation ribozyme variant]
5. CCACGCUUCAAGCAAUCGGUU [Fam1B.1 aminoacylation ribozyme variant]
6. CCACACUCCAAGCAAUCGGUA [Fam1B.1 aminoacylation ribozyme variant]
7. AUUCACCUGGGUCAUCUGGUG [Fam2.2 aminoacylation ribozyme variant]
8. AUUCACCUAGGAUAUCGGGUG [Fam2.2 aminoacylation ribozyme variant]

[1.22, 2.68, 0.775, 0.58, 1.93, 1.34, 2, 3.64]

Can you give me self-aminoacylation for all of these, one by one?
1. AAGUUUGCUAGUAGUCGCAAG [Fam3.1 aminoacylation ribozyme variant]
2. CCACACUUCAAGCCAUCGGUA [Fam1B.1 aminoacylation ribozyme variant]
3. AUUACCCUGGUAAUAGAGUGA [Fam2.1 aminoacylation ribozyme variant]
4. AUCCACCUAGGUCAUCGGAUG [Fam2.2 aminoacylation ribozyme variant]

1. 0.773
2. 1.4
3. 6.61
4. 1.65

Let me know recorded self-aminoacylation for UAGUUUGCGAAUAGUCGCAAG [Fam3.1 aminoacylation ribozyme variant] , thanks.
1.1

----------
Tested on: biotinyl-Leu-oxazolone
Assay: self-aminoacylation, catalytic enhancement (BLO) (fold over background); higher = more active; k-Seq, kA / k0A0; sequences stand for … in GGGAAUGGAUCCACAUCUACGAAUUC…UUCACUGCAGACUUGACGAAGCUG
Variants at the floor of the assay were thinned out.
Quantity measured: self-aminoacylation
Give bare numbers.

// worked examples, self-aminoacylation included
1) CCACAGUUCAAGCAAUAGGUC [Fam1B.1 aminoacylation ribozyme variant] = 0.731
2) ACUACCCUAGUCAUCGAGUGA [Fam2.1 aminoacylation ribozyme variant] = 5.39
3) AAGUUUGCUACUAGUCGCAAG [Fam3.1 aminoacylation ribozyme variant] = 0.766
4) CUACUUCUAACAAGCGGUCUG [Fam1A.1 aminoacylation ribozyme variant] = 0.658
5) AUCCACCUAGGUGAUCGGGUG [Fam2.2 aminoacylation ribozyme variant] = 5.68
6) CUACUCCAGACAAUCGGUCUG [Fam1A.1 aminoacylation ribozyme variant] = 1.07
7) AAGUGUGCUGAUAGUCGCAAG [Fam3.1 aminoacylation ribozyme variant] = 1.42
8) CCACACUUCAAGCAAGCGGGC [Fam1B.1 aminoacylation ribozyme variant] = 1.59
9) AUUGCCCUGGUCAUCGAGUAA [Fam2.1 aminoacylation ribozyme variant] = 8.75
10) CUACUUCAAACAUUCGGUGUG [Fam1A.1 aminoacylation ribozyme variant] = 1.73

Lab note: each sequence below needs its self-aminoacylation filled in.
1. CCACACGUCAAGCAAUCGGAC [Fam1B.1 aminoacylation ribozyme variant]
2. AUUACCCUGGUAUUCGAGUGA [Fam2.1 aminoacylation ribozyme variant]

1.36
7.89

Dear colleague, could you send me self-aminoacylation for each of the items below? Thanks.
1. CCACACUUCGAUCAAUCGGUC [Fam1B.1 aminoacylation ribozyme variant]
2. AUGUUUGCUAACAGUCGCAAG [Fam3.1 aminoacylation ribozyme variant]
3. AUUCACCUGGGUCACCGGGUG [Fam2.2 aminoacylation ribozyme variant]
4. AAGUUUGUUUAUAGUCGCAAG [Fam3.1 aminoacylation ribozyme variant]

1. 0.777
2. 1.49
3. 5.41
4. 1.26

# batch size: 3; output self-aminoacylation per entry
1. AUUCACUUAAGUCAUCGGGUG [Fam2.2 aminoacylation ribozyme variant]
2. GUACUUCAAACGAUCGGUCUG [Fam1A.1 aminoacylation ribozyme variant]
3. CCACGCUUAAAGCAAUCGGUC [Fam1B.1 aminoacylation ribozyme variant]

1: 12.4; 2: 1.32; 3: 0.752
